Reported TGI is given for each of the following compounds.
# System: CCRF-CEM leukemia
# ASSAY_EXPLANATION: NCI tumour cell line growth inhibition, 48 h
Where a SMILES comes first, the peptide text is derived from it. The star is where a group is joined. Boc = CC(C)(C)OC(=O)*; OBn = c1ccc(CO*)cc1

[
  {
    "COMPOUND": "CC(=O)N1CCN(C23OC4(N5CCN(C(C)=O)CC5)C5C6CC(C7C6C4C72)C53)CC1 (centres undefined)",
    "TGI": "> 100 µM"
  },
  {
    "COMPOUND": "Nc1cc(N2CCCC2)nc(=O)n1Cc1ccccc1",
    "TGI": "> 100 µM"
  },
  {
    "COMPOUND": "C[N+]1(C)C/C(=C\\c2ccncc2)C(=O)/C(=C/c2ccncc2)C1",
    "TGI": "> 100 µM"
  },
  {
    "COMPOUND": "Fc1cccc(Cl)c1/C=N\\N=C1c2ccccc2-c2ccccc21",
    "TGI": "> 100 µM"
  },
  {
    "COMPOUND": "COc1cc(Br)c(C=Nc2cccc3ccc(OS(=O)(=O)c4cccc([N+](=O)[O-])c4)cc23)cc1OC",
    "TGI": "> 100 µM"
  },
  {
    "COMPOUND": "Cc1c2c(OCCCCN3CCN(c4ncccn4)CC3)nn(C)c(=O)c2c(C)n1-c1ccccc1",
    "TGI": "> 100 µM"
  },
  {
    "COMPOUND": "COc1cc2c(cc1OC)-c1c3c(cc4c1[C@@H](C2)N(C)CC4)OCO3",
    "TGI": "39.4 µM"
  },
  {
    "COMPOUND": "CNC(=S)N/N=C/c1ccc([N+](=O)[O-])s1",
    "TGI": "> 10 µM"
  },
  {
    "COMPOUND": "c1ccc2c(c1)nc1n2CCSC1",
    "TGI": "> 100 µM"
  },
  {
    "COMPOUND": "CCOC(=O)C(CS)NC(=O)CCCCCCCC(=O)NC(CS)C(=O)OCC (centres undefined)",
    "TGI": "> 100 µM"
  },
  {
    "COMPOUND": "C[N+](C)(C)c1ncnc2c1ncn2C1CCCCO1 (centres undefined)",
    "TGI": "> 100 µM"
  },
  {
    "COMPOUND": "CC1(COS(=O)(=O)OCC2(C)COS(=O)(=O)OC2)COS(=O)(=O)OC1",
    "TGI": "> 64.4 µM"
  },
  {
    "COMPOUND": "C=C=C(C(=O)OC)S(=O)c1ccc([N+](=O)[O-])cc1[N+](=O)[O-] (centres undefined)",
    "TGI": "32.5 µM"
  },
  {
    "COMPOUND": "COc1cc(Cn2c(-c3nonc3N)nc3ccccc32)ccc1C",
    "TGI": "> 100 µM"
  },
  {
    "COMPOUND": "O=c1[nH]c(=O)n(C2OC3COC2C3O)cc1F (centres undefined)",
    "TGI": "> 100 µM"
  },
  {
    "COMPOUND": "C[C@]12CC[C@@H]3c4ccc(O)cc4C(O)C[C@H]3[C@@H]1CCC2=O (some centres undefined)",
    "TGI": "> 100 µM"
  },
  {
    "COMPOUND": "O=C1/C(=C2\\Sc3c(ccc(Cl)c3Cl)C2=O)Sc2c1ccc(Cl)c2Cl",
    "TGI": "> 100 µM"
  },
  {
    "COMPOUND": "COC(=O)C1=C(CS(=O)c2ccccc2[N+](=O)[O-])ON(C)C1c1ccccc1 (centres undefined)",
    "TGI": "39.3 µM"
  },
  {
    "COMPOUND": "COC(=O)CCCCCN=Cc1c(O)c(O)c(C(C)C)c2cc(C)c(-c3c(C)cc4c(C(C)C)c(O)c(O)c(C=NCCCCCC(=O)OC)c4c3O)c(O)c12",
    "TGI": "11.1 µM"
  },
  {
    "COMPOUND": "O=c1[nH]nc(Cc2ccccc2)n1-n1cnnc1",
    "TGI": "> 100 µM"
  },
  {
    "COMPOUND": "C[C-](O)O.O/C(=C\\[C-](O)c1ccccc1)c1ccccc1.O/C(=C\\[C-](O)c1ccccc1)c1ccccc1.[Nd+3] (centres undefined)",
    "TGI": "15.3 µM"
  },
  {
    "COMPOUND": "COC(=O)[C@@H]1C[C@@]2(C3C=CN(C(=O)C(F)(F)F)C=C3)c3ccccc3N(C(=O)C(F)(F)F)[C@H]2N1C(=O)OC",
    "TGI": "> 100 µM"
  },
  {
    "COMPOUND": "COc1ccc(C2C(C#N)=C(S)N(C3OC(CO)C(O)C(O)C3O)C(c3ccccc3)=C2C(C)=O)cc1 (centres undefined)",
    "TGI": "> 100 µM"
  },
  {
    "COMPOUND": "NCCCCNCCCNC(=O)c1nc(-c2csc(CCN)n2)sc1Cl",
    "TGI": "> 100 µM"
  },
  {
    "COMPOUND": "CN(C)C(=O)O[C@@H]1CN[C@@H](C#Cc2cc3ncnc(Nc4ccc(OCc5cccc(F)c5)c(Cl)c4)c3s2)C1",
    "TGI": "> 25 µM"
  },
  {
    "COMPOUND": "COC(=O)c1nc(N)[nH]c(=O)c1CCCCCc1c(C(=O)OC)nc(N)[nH]c1=O",
    "TGI": "> 50 µM"
  },
  {
    "COMPOUND": "CCc1c(C)c(C#N)c(=S)n(C2OC(CO)C(O)C(O)C2O)c1C (centres undefined)",
    "TGI": "> 100 µM"
  },
  {
    "COMPOUND": "COc1cc(/C=N/Nc2nnc3c4ccccc4c4ncccc4c3n2)cc(OC)c1OC",
    "TGI": "> 10 µM"
  },
  {
    "COMPOUND": "COc1ccc(/C=C2\\C(=O)N(C(=O)Cc3ccccc3)N=C2C)cc1OC",
    "TGI": "> 100 µM"
  },
  {
    "COMPOUND": "O=c1[nH]c(N/N=C\\C(O)C(O)C(O)CO)nc2ccccc12 (centres undefined)",
    "TGI": "> 100 µM"
  },
  {
    "COMPOUND": "COc1c(C)c(OC)c2c(c1O)[C@@H]1[C@@H]3Cc4c(OC)c(C)c(OC)c(O)c4[C@H](CNC(=O)c4cnc5ccccc5n4)N3[C@@H](C#N)[C@H](C2)N1C",
    "TGI": "0.0054 µM"
  },
  {
    "COMPOUND": "c1ccc2c(Cc3nnc4sc(SSc5nn6c(Cc7c[nH]c8ccccc78)nnc6s5)nn34)c[nH]c2c1",
    "TGI": "> 100 µM"
  },
  {
    "COMPOUND": "CN1C(=O)C(Cl)(C(Cl)(Cl)S(=O)(=O)O)C(=O)c2ccccc21 (centres undefined)",
    "TGI": "> 100 µM"
  },
  {
    "COMPOUND": "Cn1c(=O)c2c(ncn2CN2CCN(Cn3cnc4c3c(=O)n(C)c(=O)n4C)CC2)n(C)c1=O",
    "TGI": "39.5 µM"
  },
  {
    "COMPOUND": "CCOC(=O)COS(=O)(=O)C(F)(F)F",
    "TGI": "> 100 µM"
  },
  {
    "COMPOUND": "CCOC(=O)CC1NC(=O)CS1 (centres undefined)",
    "TGI": "> 100 µM"
  },
  {
    "COMPOUND": "COc1cc(S(=O)(=O)Nc2ccc(-c3csc(N4C(=O)CSC4c4ccccc4)n3)cc2)ccc1Cl (centres undefined)",
    "TGI": "> 100 µM"
  },
  {
    "COMPOUND": "CCOC(=O)C(=O)Nc1c(C(C)C)cccc1C(C)C",
    "TGI": "> 100 µM"
  },
  {
    "COMPOUND": "CC(C)(C)OC(=O)NC(Cc1ccccc1)C(=O)NC(Cc1ccccc1)C(=O)NCC(=O)OCc1ccccc1 (stereo not drawn) (Boc-Phe-Phe-Gly-OBn; configuration not given here)",
    "TGI": "43.1 µM"
  }
]
